- Measurement Protocol: small-molecule microarray binders of probe aCHRDL2, primary screen, biochemical, biotinylated probe, 635/667 nm fluorescence (AID 1100)
- Condition Label: higher = more signal
Just so you know, the groups by composite z-score go like this: bucket A = under -0.3, bucket B = from -0.3 up to 0.7, bucket C = 0.7 and over

Before answering, review these 8 worked examples.
Molecule | Class Name
CCCNC(=O)[C@@H]1c2ccccc2C(=O)N(c2ccc(C)cn2)[C@H]1c1ccc(CO)cc1 | bucket C
COc1cccc([C@@H]2Oc3ccc(Br)cc3C(=O)[C@H]2O)c1 | bucket A
CCCNC(=O)[C@@H]1c2ccccc2C(=O)N(Cc2ccccc2Cl)[C@H]1c1ccc(CO)cc1 | bucket C
CCc1cc2c(nc1CC)CCN(CCC(C)=NOC(C)CN1CCCc3nc(C)c(C)cc31)C2 (centres undefined) | bucket B
COCCNC(=O)OCC1CCCC2(CC(OC(=O)NCCc3ccc(F)cc3)CC(CCC(=O)N[C@@H](C)C(=O)OC)O2)O1 (some centres undefined) | bucket B
Cc1ccc(C2CC=C(C(=O)O)CN2S(=O)(=O)c2ccc(C)cc2)cc1 (centres undefined) | bucket B
CCCC[C@@H](O)C1=C(C)C[C@H]2C(=O)N(Cc3ccccc3)C(=O)[C@H]2[C@H]1CO | bucket A
CC(CCC(=O)OC[C@H]1O[C@H](C#Cc2ccccc2)C=C[C@@H]1Oc1ccc(C)cc1)=NOC[C@@H](O)COCc1ccco1 | bucket B

We now examine a further molecule.
Please report the category associated with CC(C)(C)OC(=O)CC[C@]1(C(N)=O)COC(c2ccc(OCCCO)cc2)=N1 , nothing else.
bucket C
